- Tested on: pain threshold in mice
- testName: Analgetic effect, Pressure Test (pain threshold, tail pressure)
- Format: in vivo, dd Male mice
- assaySetup: 100 mg/kg oral; 90 min; *p <0.05, **p <0.01, ***p <0.001
Consider the following compounds and their measured Pain threshold, Mean ± SE, 90 min readings.
API: value field is a number in mmHg; no unit string.

Write down Pain threshold, Mean ± SE, 90 min measured for item O=C1NCC(Cc2ccc(Cl)cc2)O1 (stereo not drawn) 48.8

Identify the reported Pain threshold, Mean ± SE, 90 min for the following entry. CN1CC(Cc2ccccc2)OC1=O (stereo not drawn) 43.5

Return the recorded Pain threshold, Mean ± SE, 90 min value; entry: O=C1NCC(Cc2ccccc2Cl)O1 (stereo not drawn) 53.3

Return the recorded Pain threshold, Mean ± SE, 90 min value; entry: COc1ccccc1CC1CNC(=O)O1 (stereo not drawn) 42.9

Annotate the compound O=C1NCC(Cc2ccccc2F)O1 (stereo not drawn) with its measured Pain threshold, Mean ± SE, 90 min. 50.4

Report Pain threshold, Mean ± SE, 90 min, nothing else, for this compound: O=C1NCC(Cc2ccccc2)O1 (stereo not drawn) 51.5

* * *

- System: pain threshold in mice
- testName: Analgetic effect, Pressure Test (pain threshold, tail pressure)
- Format: in vivo, dd Male mice
- assaySetup: 100 mg/kg oral
Pain threshold Increase Ratio listing for selected compounds.

// below: answered compounds
| compound | testResult |
| --- | --- |
| COc1ccccc1CC1CNC(=O)O1 (stereo not shown) | 1.20 |
| O=C1NCC(Cc2ccccc2Br)O1 (stereo not shown) | 1.24 |
| Cc1c(N(C)C)c(=O)n(-c2ccccc2)n1C [Aminopyrine, reference compound] | 2.20 |

API: the following record is the query input.
Fill in Pain threshold Increase Ratio for record O=C1NCC(Cc2ccc(Cl)cc2)O1 (stereo not shown) 1.15

* * *

- Tested on: pain threshold in mice
- testName: Analgetic effect, Pressure Test (pain threshold, tail pressure)
- Assay type: in vivo, dd Male mice
- assaySetup: 100 mg/kg oral; 90 min; *p <0.05, **p <0.01, ***p <0.001
metricName: Pain threshold, Mean ± SE, 90 min (mmHg)
Provide only the numeric value, understood in mmHg.

# count of solved cases: 2
| compound | metricName | testResult |
| --- | --- | --- |
| O=C1NCC(Cc2ccccc2C(F)(F)F)O1 (stereo not drawn) | Pain threshold, Mean ± SE, 90 min | 57.5 |
| Cc1c(N(C)C)c(=O)n(-c2ccccc2)n1C [Aminopyrine, reference compound] | Pain threshold, Mean ± SE, 90 min | 70.8 |

Could you now consider this next compound?
Give Pain threshold, Mean ± SE, 90 min only, for O=C1NCC(Cc2ccccc2Br)O1 (stereo not drawn) , using pain threshold in mice data. 57.5
